System: HCT-8 host cells (Hs18S)
Settings: human, 41 h, 10 μM
metric_name: Hs18S ΔCT

Sure, the documented Hs18S ΔCT for C[C@]12CC[C@@H]3c4ccc(O)cc4CC[C@H]3[C@@H]1CC[C@@H]2O is -0.19

The compound identified as CC1=C(CCC(=O)O)c2cc3[nH]c(cc4nc(cc5[nH]c(cc1n2)c(C)c5C(C)O)C(C)=C4C(C)O)c(C)c3CCC(=O)O (centres unmarked) registered its Hs18S ΔCT at 1.45

Short answer for COc1ccccc1O : Hs18S ΔCT was 0.02

The recorded Hs18S ΔCT for entry COC(=O)c1c(C)cc(OC(=O)c2c(C)cc(O)c(C=O)c2O)c(C)c1O equals 1.02

Consider O=C(O)[C@@H](O)[C@H](O)[C@H](O)[C@@H](O)C(=O)O . Its measured Hs18S ΔCT is -0.19
